- Tested on: PAK2 (human), Q13177 [T402E]
- Sequence (Q13177 whole entry T402E, looked up): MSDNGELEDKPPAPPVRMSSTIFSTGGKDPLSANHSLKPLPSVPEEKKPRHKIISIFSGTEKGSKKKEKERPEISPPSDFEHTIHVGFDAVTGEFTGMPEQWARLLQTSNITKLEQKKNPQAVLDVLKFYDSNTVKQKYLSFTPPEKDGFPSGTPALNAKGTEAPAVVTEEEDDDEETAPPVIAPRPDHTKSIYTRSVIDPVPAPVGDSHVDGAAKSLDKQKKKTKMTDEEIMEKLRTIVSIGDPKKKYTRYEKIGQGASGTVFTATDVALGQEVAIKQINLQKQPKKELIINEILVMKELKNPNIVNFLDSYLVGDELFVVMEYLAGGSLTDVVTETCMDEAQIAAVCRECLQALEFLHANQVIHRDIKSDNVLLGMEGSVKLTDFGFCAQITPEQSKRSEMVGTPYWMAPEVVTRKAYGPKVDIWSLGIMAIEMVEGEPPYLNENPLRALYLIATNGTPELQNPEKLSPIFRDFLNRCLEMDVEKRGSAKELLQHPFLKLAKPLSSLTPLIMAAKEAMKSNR
- protocolDescription: radiometric filter-binding kinase assay
- appliedConditions: compound 1.0 µM
measuredMetric: residual activity (%)
Reply numerically in %, unit not repeated.

Below, 3 compounds whose answers are already recorded.
| entrySmiles | residual activity / % |
| --- | --- |
| Cc1cc(NC(=O)c2cccc(NC(=O)/C=C/CN(C)C)c2)ccc1Nc1nccc(-c2cccnc2)n1 | 90 |
| CCCCCc1ccc(/C=C/[C@H](O)[C@@H](CO)NC)cc1 | 103 |
| CC(C)(C#N)c1ccc(N2C(=O)OCc3cnc4ccc(-c5cnc6ccccc6c5)cc4c32)cc1 | 95 |

Problem: Query: residual activity; subject: `Oc1ccc2ccccc2c1SSc1c(O)ccc2ccccc12`
Solution: 5

Problem: Query: residual activity; subject: `NC(=O)c1c(NC(=O)C2CC2)sc2c1CCCC2`
Solution: 92

Problem: Query: residual activity; subject: `Cc1nc(-c2ccc(OCC(C)C)c(C#N)c2)sc1C(=O)O`
Solution: 95

###

Reported residual activity by item:
- testTarget: ULK1 (human) (UniProt O75385)
- Sequence (O75385 whole entry, looked up): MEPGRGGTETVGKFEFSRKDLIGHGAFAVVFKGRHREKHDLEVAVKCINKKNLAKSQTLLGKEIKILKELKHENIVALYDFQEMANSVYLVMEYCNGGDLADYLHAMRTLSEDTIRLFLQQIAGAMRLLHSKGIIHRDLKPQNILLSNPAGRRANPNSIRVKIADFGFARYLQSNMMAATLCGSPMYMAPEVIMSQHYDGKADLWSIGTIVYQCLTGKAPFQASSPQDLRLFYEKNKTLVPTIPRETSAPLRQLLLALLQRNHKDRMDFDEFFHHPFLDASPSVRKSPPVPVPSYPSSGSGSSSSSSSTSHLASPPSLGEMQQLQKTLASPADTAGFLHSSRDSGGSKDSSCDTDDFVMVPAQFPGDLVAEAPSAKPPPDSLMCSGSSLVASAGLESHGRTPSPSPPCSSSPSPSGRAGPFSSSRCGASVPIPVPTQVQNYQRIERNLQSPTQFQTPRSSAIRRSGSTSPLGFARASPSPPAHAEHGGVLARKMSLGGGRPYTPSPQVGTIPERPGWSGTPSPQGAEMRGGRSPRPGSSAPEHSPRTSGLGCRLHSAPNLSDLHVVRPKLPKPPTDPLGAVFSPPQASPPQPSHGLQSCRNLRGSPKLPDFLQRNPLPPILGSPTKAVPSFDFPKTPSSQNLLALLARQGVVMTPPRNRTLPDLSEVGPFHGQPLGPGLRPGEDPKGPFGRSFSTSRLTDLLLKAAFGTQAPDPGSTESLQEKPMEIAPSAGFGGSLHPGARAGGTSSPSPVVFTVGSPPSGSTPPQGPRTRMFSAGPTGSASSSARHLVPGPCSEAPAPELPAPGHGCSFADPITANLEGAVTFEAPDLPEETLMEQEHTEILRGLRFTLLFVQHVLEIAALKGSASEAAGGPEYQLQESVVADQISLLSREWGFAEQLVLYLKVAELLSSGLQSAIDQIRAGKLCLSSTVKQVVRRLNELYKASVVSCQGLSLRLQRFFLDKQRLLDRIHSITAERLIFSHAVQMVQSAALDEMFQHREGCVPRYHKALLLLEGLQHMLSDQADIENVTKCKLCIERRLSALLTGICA
- protocolDescription: radiometric filter-binding kinase assay
- appliedConditions: compound 0.1 µM
Reply numerically in %, unit not repeated.

Below, 4 compounds whose answers are already recorded.
| compound | residual activity [%] |
| --- | --- |
| CCn1c(-c2nonc2N)nc2cncc(CNC3CCNCC3)c21 | 83 |
| CC1=C(CO)C(=O)O[C@@H]([C@@H](C)[C@H]2CC[C@H]3[C@@H]4C[C@H]5O[C@]56[C@@H](O)C=CC(=O)[C@]6(C)C4CC[C@]23C)C1 (stereo not given in full) | 108 |
| Cc1ccc(-c2ccc3c(ccc4sc5c(c43)NC[C@@H](C)NC5=O)n2)cn1 | 115 |
| Cc1cc(NC(=O)c2cccc(NC(=O)/C=C/CN(C)C)c2)ccc1Nc1nccc(-c2cccnc2)n1 | 27 |

Continue with the compound presented below.
Problem: Query: residual activity; subject: `CN1CCN(CCOc2cc(OC3CCOCC3)c3c(Nc4c(Cl)ccc5c4OCO5)ncnc3c2)CC1`
Solution: 99

###

- testTarget: YES1 (human)
- protocolDescription: radiometric filter-binding kinase assay
- appliedConditions: compound 1.0 µM
measuredMetric: residual activity (%)
Reply numerically in %, unit not repeated.

Below, 2 molecules whose answers are already recorded.
| entrySmiles | testTarget | residual activity (%) |
| --- | --- | --- |
| Cc1ccc(-c2ccc3c(ccc4sc5c(c43)NC[C@@H](C)NC5=O)n2)cn1 | YES1 (human) | 89 |
| NC(=O)c1ccc(-c2ccc(Oc3cncc4sc(-c5nn[nH]n5)cc34)cc2)cc1 | YES1 (human) | 91 |

Continue with the molecule presented below.
Problem: Query: residual activity; subject: `NC(=O)c1c(NC(=O)C2CC2)sc2c1CCCC2`
Solution: 92

###

- testTarget: TSSK1B (human)
- protocolDescription: radiometric filter-binding kinase assay
- appliedConditions: compound 1.0 µM
Reported residual activity by item:
Reply numerically in %, unit not repeated.

Below, 5 molecules whose answers are already recorded.
| molecule | residual activity, % |
| --- | --- |
| CN(C)C/C=C/C(=O)Nc1cccc(C(=O)Nc2ccc(Nc3nccc(-c4cccnc4)n3)cc2)c1 | 101 |
| Cc1ccc(-c2ccc3c(ccc4sc5c(c43)NC[C@@H](C)NC5=O)n2)cn1 | 85 |
| C=C1C(=O)OC2C1CC/C(C)=C/CCC1(C)OC21 (stereo unspecified) | 103 |
| COc1ccc(N(C(=O)Nc2c(C)cccc2C)c2cc(Nc3ccc(N4CCN(C)CC4)cc3)ncn2)c(OC)c1 | 62 |
| Nc1cccc2c1CN(C1CCC(=O)NC1=O)C2=O (stereo unspecified) | 89 |

Problem: Field: residual activity (TSSK1B (human)). Entry: `Cc1cc(NC(=O)c2cccc(NC(=O)/C=C/CN(C)C)c2)ccc1Nc1nccc(-c2cccnc2)n1`
Solution: 86

Problem: Field: residual activity (TSSK1B (human)). Entry: `CNc1nc(-c2ccc3c(N)n[nH]c3c2)cc(N2C[C@@H](C(=O)NC3CCCCC3)CC[C@H]2C)n1`
Solution: 88

Problem: Field: residual activity (TSSK1B (human)). Entry: `NC(=O)c1cc(-c2ccnc(NC3CCCCC3)c2)nc(N2CCNCC2)c1`
Solution: 56

Problem: Field: residual activity (TSSK1B (human)). Entry: `O=C(N[C@@H](COc1ccc2[nH]c(=O)[nH]c2c1)c1ccccc1)c1cccn(Cc2ccc(F)c(F)c2)c1=O`
Solution: 103

Problem: Field: residual activity (TSSK1B (human)). Entry: `COc1cc(C(=O)N2CCOCC2)c(F)cc1Nc1ncc(C(F)(F)F)c(NC2CC2)n1`
Solution: 31

Problem: Field: residual activity (TSSK1B (human)). Entry: `O=C(Nc1cccnc1)c1cc(-c2ccnc(F)c2)ccc1OCc1ccccc1`
Solution: 103

###

- testTarget: UniProt:O96013
- Sequence (O96013 whole entry, looked up): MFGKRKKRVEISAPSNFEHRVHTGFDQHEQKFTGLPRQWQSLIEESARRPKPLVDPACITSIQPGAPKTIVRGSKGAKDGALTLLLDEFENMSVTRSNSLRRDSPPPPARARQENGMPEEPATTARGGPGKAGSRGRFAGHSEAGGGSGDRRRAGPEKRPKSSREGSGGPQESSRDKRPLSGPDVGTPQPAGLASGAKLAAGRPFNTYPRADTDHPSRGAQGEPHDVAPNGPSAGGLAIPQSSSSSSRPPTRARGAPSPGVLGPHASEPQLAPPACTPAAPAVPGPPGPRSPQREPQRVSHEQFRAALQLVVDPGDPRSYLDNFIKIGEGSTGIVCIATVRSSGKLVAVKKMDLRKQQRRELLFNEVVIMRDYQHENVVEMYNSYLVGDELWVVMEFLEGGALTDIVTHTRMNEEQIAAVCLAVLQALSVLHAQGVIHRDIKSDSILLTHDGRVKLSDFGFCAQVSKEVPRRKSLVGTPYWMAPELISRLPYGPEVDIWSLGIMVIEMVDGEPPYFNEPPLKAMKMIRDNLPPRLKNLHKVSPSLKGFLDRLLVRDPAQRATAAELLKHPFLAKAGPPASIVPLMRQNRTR
- protocolDescription: radiometric filter-binding kinase assay
- appliedConditions: compound 1.0 µM
measuredMetric: residual activity (%)
Reply numerically in %, unit not repeated.

Below, 5 molecules whose answers are already recorded.
| molecule | residual activity [%] |
| --- | --- |
| O=C(O)c1ccc(-c2c[nH]c3ncc(-c4ccccc4)cc23)cc1C1CCCC1 | 85 |
| O=C1Nc2nc(-c3c(O)cccc3OCC3CC3)cc(C3CCCNC3)c2CO1 (centres undefined) | 89 |
| Cc1cccc(Nc2nn(C)c3ncnc(N)c23)c1 | 86 |
| COc1cc(O)c2c(c1)/C=C/C[C@H](O)[C@H](O)C(=O)/C=C\C[C@H](C)OC2=O | 81 |
| N#Cc1c(C2CCNCC2)cc(-c2c(O)cccc2OCC2CC2)nc1N | 112 |

Problem: Query: residual activity; subject: CC1=C(CO)C(=O)O[C@@H]([C@@H](C)[C@H]2CC[C@H]3[C@@H]4C[C@H]5O[C@]56[C@@H](O)C=CC(=O)[C@]6(C)C4CC[C@]23C)C1 (some centres undefined)
Solution: 104

Problem: Query: residual activity; subject: `CCCCCc1ccc(/C=C/[C@H](O)[C@@H](CO)NC)cc1`
Solution: 91

Problem: Query: residual activity; subject: `C[C@H]1CCCC(=O)CCC/C=C/c2cc(O)cc(O)c2C(=O)O1`
Solution: 95

Problem: Query: residual activity; subject: `NC(=O)c1ccc(-c2ccc(Oc3cncc4sc(-c5nn[nH]n5)cc34)cc2)cc1`
Solution: 89

Problem: Query: residual activity; subject: `O=C(N[C@@H](COc1ccc2[nH]c(=O)[nH]c2c1)c1ccccc1)c1cccn(Cc2ccc(F)c(F)c2)c1=O`
Solution: 101

Problem: Query: residual activity; subject: `Cn1nc(Nc2ccc(F)cc2)c2c(N)ncnc21`
Solution: 86

Problem: Query: residual activity; subject: `Cc1ccc(=O)n(-c2ccccc2)c1`
Solution: 101

Problem: Query: residual activity; subject: `CNc1nc(-c2ccc3c(N)n[nH]c3c2)cc(N2C[C@@H](C(=O)NC3CCCCC3)CC[C@H]2C)n1`
Solution: 100

Problem: Query: residual activity; subject: `NC(=O)c1cc(-c2ccnc(NC3CCCCC3)c2)nc(N2CCNCC2)c1`
Solution: 93

###

- testTarget: UniProtKB Q99683
- Sequence (Q99683 whole entry, looked up): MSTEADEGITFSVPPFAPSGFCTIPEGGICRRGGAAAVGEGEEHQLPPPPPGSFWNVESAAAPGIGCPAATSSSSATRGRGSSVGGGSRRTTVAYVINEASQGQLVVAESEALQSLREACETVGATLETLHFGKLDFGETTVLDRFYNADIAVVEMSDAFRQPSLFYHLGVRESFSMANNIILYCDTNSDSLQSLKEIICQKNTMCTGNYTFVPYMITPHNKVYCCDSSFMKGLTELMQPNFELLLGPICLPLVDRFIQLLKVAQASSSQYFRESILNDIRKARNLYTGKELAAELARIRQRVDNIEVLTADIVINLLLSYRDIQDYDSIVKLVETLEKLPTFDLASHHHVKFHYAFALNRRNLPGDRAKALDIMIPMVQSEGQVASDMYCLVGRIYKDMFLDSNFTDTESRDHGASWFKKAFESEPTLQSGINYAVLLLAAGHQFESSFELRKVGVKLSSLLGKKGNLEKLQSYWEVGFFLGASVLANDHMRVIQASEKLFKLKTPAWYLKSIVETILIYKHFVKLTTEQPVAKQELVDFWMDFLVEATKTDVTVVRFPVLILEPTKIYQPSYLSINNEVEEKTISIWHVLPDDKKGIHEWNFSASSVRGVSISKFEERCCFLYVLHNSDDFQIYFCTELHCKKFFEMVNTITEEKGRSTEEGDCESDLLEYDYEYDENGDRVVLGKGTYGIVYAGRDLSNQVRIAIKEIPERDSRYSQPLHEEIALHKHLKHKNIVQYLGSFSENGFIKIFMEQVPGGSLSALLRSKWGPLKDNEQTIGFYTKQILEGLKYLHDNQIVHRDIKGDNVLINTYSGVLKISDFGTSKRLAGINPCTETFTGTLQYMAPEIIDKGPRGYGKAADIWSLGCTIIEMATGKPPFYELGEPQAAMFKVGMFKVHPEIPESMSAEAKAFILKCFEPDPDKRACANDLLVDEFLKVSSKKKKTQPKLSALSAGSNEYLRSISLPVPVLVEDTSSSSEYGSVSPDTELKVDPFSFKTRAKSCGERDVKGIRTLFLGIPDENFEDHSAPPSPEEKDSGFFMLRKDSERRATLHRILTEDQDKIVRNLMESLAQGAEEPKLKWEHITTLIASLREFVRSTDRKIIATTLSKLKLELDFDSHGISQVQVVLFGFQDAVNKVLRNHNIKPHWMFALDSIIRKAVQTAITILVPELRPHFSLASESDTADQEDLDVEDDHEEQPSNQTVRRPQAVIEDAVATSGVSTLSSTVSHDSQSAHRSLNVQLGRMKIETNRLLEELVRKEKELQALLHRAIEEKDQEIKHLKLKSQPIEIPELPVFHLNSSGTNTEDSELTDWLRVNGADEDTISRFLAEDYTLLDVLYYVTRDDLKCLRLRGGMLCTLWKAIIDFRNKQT
- protocolDescription: radiometric filter-binding kinase assay
- appliedConditions: compound 1.0 µM
Reported residual activity by item:
Reply numerically in %, unit not repeated.

| compound | reportedMeasurement |
| --- | --- |
| C=C1C(=O)OC2C1CC/C(C)=C/CCC1(C)OC21 (stereo unspecified) | 98 |
| NS(=O)(=O)OC[C@@H]1C[C@@H](n2ccc3c(N[C@H]4CCc5ccccc54)ncnc32)C[C@@H]1O | 87 |
| C=CC(=O)N1CCC[C@@H](n2nc(-c3ccc(Oc4ccccc4)cc3)c3c(N)ncnc32)C1 | 128 |

Problem: Field: residual activity (UniProtKB Q99683). Entry: `Cc1ccc(-c2ccc3c(ccc4sc5c(c43)NC[C@@H](C)NC5=O)n2)cn1`
Solution: 80

Problem: Field: residual activity (UniProtKB Q99683). Entry: `O=C(NCCCNc1nc(Nc2cccc(CN3CCOCC3)c2)ncc1C1CC1)C1CCC1`
Solution: 88

Problem: Field: residual activity (UniProtKB Q99683). Entry: `Cc1cc(NC(=O)c2cccc(NC(=O)/C=C/CN(C)C)c2)ccc1Nc1nccc(-c2cccnc2)n1`
Solution: 91

###

- testTarget: MAPK1 (human)
- protocolDescription: radiometric filter-binding kinase assay
- appliedConditions: compound 10.0 µM
Field: label. Allowed values: true (residual activity < 90%) or false (residual activity >= 90%).

| compound | qualitativeLabel |
| --- | --- |
| NC1(c2ccc(-c3nc4ccn5c(=O)[nH]nc5c4cc3-c3ccccc3)cc2)CCC1 | true |
| CCc1cncnc1N1CCN(Cc2nc3cc(C(F)(F)F)ccc3[nH]2)CC1 | true |
| O=C(O)c1cc(N=Nc2ccc(S(=O)(=O)Nc3ccccn3)cc2)ccc1O | false |

Problem: Hello, I'm reviewing records and need to know if residual activity of `CC(C)(C#N)c1ccc(N2C(=O)OCc3cnc4ccc(-c5cnc6ccccc6c5)cc4c32)cc1` is below 90%. Could you check?
Solution: false

Problem: Hello, I'm reviewing records and need to know if residual activity of COc1ccc2c(c1)c1c3c(c4c5ccccc5n(C)c4c1n2CC(O)CN(C)C)C(=O)NC3=O (stereo unspecified) is below 90%. Could you check?
Solution: false

Problem: Hello, I'm reviewing records and need to know if residual activity of `Cc1ccc(-c2ccc3c(ccc4sc5c(c43)NC[C@@H](C)NC5=O)n2)cn1` is below 90%. Could you check?
Solution: true
